Quick reference: YAP1 (% UTC) of the listed items.
System: Yap1 mRNA
experimentSummary: Antisense inhibition of human Yap1 in A-431 cells by cEt gapmers, single dose (Example 4, RTS4814)
Assay type: cell-based
conditionsUsed: Table 16; A-431 cells, 5,000 cells per well, free uptake, 2,000 nM, approximately 48 hours; RTS4814; normalized to RIBOGREEN; Yap1 mRNA relative to untreated control cells
Strand notation (5' to 3'): a small letter for the sugar, then the base; units joined by * are phosphorothioate-linked, units joined directly phosphodiester-linked; [ ] holds rarer units or linkages, { } end groups; capitals alone tell only the bases. k = constrained ethyl (cEt); [5mC] = 5-methylcytosine; d = 2'-deoxy (DNA)
Express it in % UTC; write the number only.

// worked examples, YAP1 (% UTC) included
[
  {
    "substance": "1074978 (antisense kT*kT*kG*d[5mC]*d[5mC]*dA*dG*dT*dT*d[5mC]*dT*dT*dG*kT*kT*k[5mC]) [Compound 1074978]",
    "studyTarget": "Yap1 mRNA",
    "displayUnit": "% UTC",
    "YAP1 (% UTC)": 38
  },
  {
    "substance": "1074210 (antisense kT*k[5mC]*k[5mC]*dG*dG*dA*dG*d[5mC]*d[5mC]*dT*d[5mC]*dA*dT*kG*kG*kG) [Compound 1074210]",
    "studyTarget": "Yap1 mRNA",
    "displayUnit": "% UTC",
    "YAP1 (% UTC)": 113
  },
  {
    "substance": "1074914 (antisense kT*kT*kA*d[5mC]*dA*dT*d[5mC]*d[5mC]*d[5mC]*dG*dA*dG*dT*kG*kG*kG) [Compound 1074914]",
    "studyTarget": "Yap1 mRNA",
    "displayUnit": "% UTC",
    "YAP1 (% UTC)": 97
  }
]

Now take the following substance into account.
Ask: What value of measured YAP1 (% UTC) is listed for 1074946 (antisense k[5mC]*k[5mC]*kA*dA*dA*dA*d[5mC]*d[5mC]*d[5mC]*dT*dT*dT*dG*kG*kT*k[5mC]) [Compound 1074946] ?
Result: 109
